Quick list: PaCO2 per entry.
Assay Remarks: Arterial blood gas analysis
Assay type: in vivo, rabbit
Condition: Reperfusion 1 h
Answer with the number, then the unit.

>  <Molecule>
FC(F)OC(F)C(F)(F)F (stereo not shown)

>  <Result>
30 ± 4 mmHg

$$$$

Q: Which PaCO2 is reported for this molecule? FC(F)OC(F)(F)C(F)Cl (stereo not shown)
Result: 28 ± 2 mmHg

Q: Input FCOC(C(F)(F)F)C(F)(F)F
Result: 38 ± 1 mmHg

Q: Another molecule to check: FC(F)OC(Cl)C(F)(F)F (stereo not shown)
Result: 31 ± 2 mmHg

###

The reader will find reported PaCO2 values listed item by item below.
Assay Remarks: Arterial blood gas analysis
Assay type: in vivo, rabbit
Condition: Reperfusion 3 h

Before answering, review these 3 worked examples.
>  <Compound>
FC(F)OC(F)(F)C(F)Cl (stereo not shown)

>  <Result>
32 ± 3 mmHg

$$$$
>  <Compound>
FC(F)OC(F)C(F)(F)F (stereo not shown)

>  <Result>
30 ± 1 mmHg

$$$$
>  <Compound>
FCOC(C(F)(F)F)C(F)(F)F

>  <Result>
39 ± 1 mmHg

$$$$

Q: Param item = FC(F)OC(Cl)C(F)(F)F (stereo not shown) ; retrieve measured PaCO2.
Result: 33 ± 2 mmHg

###

Quick reference for EtHalogenated among some molecules
Assay Remarks: End-tidal gas analysis
Assay type: in vivo, rabbit
Condition: end-tidal; Ischemia 30 min
# value in %; strip the unit string

>  <Molecule>
FC(F)OC(Cl)C(F)(F)F (stereo not shown) [ISO, isoflurane]

>  <Output Unit>
%

>  <EtHalogenated>
0.00

$$$$

Q: Recorded EtHalogenated for FC(F)OC(F)C(F)(F)F (stereo not shown) [DES, desflurane] , please?
Result: 0.01

Q: Same question for FC(F)OC(F)(F)C(F)Cl (stereo not shown) [ENF, enflurane] please.
Result: 0.00

Q: Continue with FCOC(C(F)(F)F)C(F)(F)F [SEVO, sevoflurane]
Result: 0.04

###

Assay Remarks: Arterial blood gas analysis
Format: in vivo, rabbit
Condition: arterial blood; Reperfusion 3 h
Method: Male New Zealand white rabbits weighing between 2.5 and 3.0 kg were anesthetized with intravenous sodium pentobarbital (30 mg/kg). […] Baseline measurements of systemic hemodynamics, arterial blood gas tensions, and blood concentrations of anesthetic agent were performed 30 min after instrumentation was completed. […] HVA concentrations in blood were determined by gas chromatographic (GC) analysis. […]
Below, each entry is listed alongside its reported pH.
Reply with the value as a number alone.

Study these solved cases before continuing.
>  <Compound>
FC(F)OC(F)C(F)(F)F (stereo not shown) [DES, desflurane]

>  <Attribute Measured>
pH

>  <Number>
7.41

$$$$
>  <Compound>
FC(F)OC(F)(F)C(F)Cl (stereo not shown) [ENF, enflurane]

>  <Attribute Measured>
pH

>  <Number>
7.42

$$$$

Q: So what's the measured pH for this one? FC(F)OC(Cl)C(F)(F)F (stereo not shown) [ISO, isoflurane]
Result: 7.39

Q: // query: FCOC(C(F)(F)F)C(F)(F)F [SEVO, sevoflurane]
Result: 7.39

###

Assay Remarks: Blood concentration of anesthetics by GC and conversion to MAC-equivalents
Type: in vivo, rabbit
Condition: measured blood concentration divided by x
Attribute Measured: Observed Blood Concentration following 30 min, 10 mL/h Infusion (MAC-Equivalents)
Field: numeric (MAC-Equivalents). Do not append units.

Below, each entry is followed by its recorded Observed Blood Concentration following 30 min, 10 mL/h Infusion result.
>  <Compound>
FC(F)OC(F)C(F)(F)F (stereo not shown) [DES, desflurane]

>  <Output Unit>
MAC-Equivalents

>  <Number>
0.13

$$$$
>  <Compound>
FC(F)OC(Cl)C(F)(F)F (stereo not shown) [ISO, isoflurane]

>  <Output Unit>
MAC-Equivalents

>  <Number>
0.17

$$$$
>  <Compound>
FC(F)OC(F)(F)C(F)Cl (stereo not shown) [ENF, enflurane]

>  <Output Unit>
MAC-Equivalents

>  <Number>
0.15

$$$$

Let us move to another entry and its Observed Blood Concentration following 30 min, 10 mL/h Infusion.
Q: Recorded Observed Blood Concentration following 30 min, 10 mL/h Infusion of FCOC(C(F)(F)F)C(F)(F)F [SEVO, sevoflurane] , please.
Result: 0.16

###

Assay Remarks: Arterial blood gas analysis
Assay type: in vivo, rabbit
Condition: Baseline
Attribute Measured: PaO2 (mmHg)
Report as a plain number; the unit mmHg is understood.

Q: For the compound shown here, FC(F)OC(F)C(F)(F)F (stereo not shown) , give the reported PaO2.
Result: 158

Q: Okay, and FC(F)OC(Cl)C(F)(F)F (stereo not shown) ?
Result: 136

Q: Subsequent entry: FC(F)OC(F)(F)C(F)Cl (stereo not shown)
Result: 151

###

Assay Remarks: Blood concentration of anesthetics by GC and conversion to MAC-equivalents
Type: in vivo, rabbit
Condition: Memory (30 min after infusion, just before coronary occlusion)
Attribute Measured: Blood Concentration (µM)
Use µM as the unit, but write only the number.

Q: Blood Concentration for FCOC(C(F)(F)F)C(F)(F)F ?
Result: 20

Q: Now consider FC(F)OC(Cl)C(F)(F)F (stereo not shown) and answer again.
Result: 40

Q: Next: FC(F)OC(F)C(F)(F)F (stereo not shown)
Result: 30

Q: Follow-up item: FC(F)OC(F)(F)C(F)Cl (stereo not shown)
Result: 60

###

RPP values by entry
Assay Remarks: Systemic hemodynamics during infarct experiment
Type: in vivo, rabbit
Condition: Ischemia 30 min
Number in bpm × mmHg × 10^3, nothing else.

Q: What value of measured RPP is listed for FC(F)OC(Cl)C(F)(F)F (stereo not shown) ?
Result: 14.3

Q: Now this one: FC(F)OC(F)(F)C(F)Cl (stereo not shown)
Result: 14.5

Q: Another: FCOC(C(F)(F)F)C(F)(F)F
Result: 15.7

Q: Could you do the same for FC(F)OC(F)C(F)(F)F (stereo not shown) , please?
Result: 14.5

###

Assay Remarks: End-tidal gas analysis
Assay type: in vivo, rabbit
Condition: end-tidal; Reperfusion 3 h
Attribute Measured: EtHalogenated (%)
A number alone suffices; assume %.

Below: 3 compounds and their reported EtHalogenated.
>  <Compound>
FC(F)OC(F)(F)C(F)Cl (stereo not shown)

>  <Output Unit>
%

>  <Number>
0.00

$$$$
>  <Compound>
FC(F)OC(F)C(F)(F)F (stereo not shown)

>  <Output Unit>
%

>  <Number>
0.00

$$$$
>  <Compound>
FC(F)OC(Cl)C(F)(F)F (stereo not shown)

>  <Output Unit>
%

>  <Number>
0.00

$$$$

Proceeding to the next compound to report its EtHalogenated.
Q: # input compound: FCOC(C(F)(F)F)C(F)(F)F ; wanted: its EtHalogenated
Result: 0.05

###

Assay Remarks: Arterial blood gas analysis
Assay type: in vivo, rabbit
Condition: Reperfusion 1 h
Attribute Measured: PaO2 (mmHg)
Give the number; mmHg is assumed, so skip it.

Examples from the recorded data:
>  <Compound>
FCOC(C(F)(F)F)C(F)(F)F

>  <PaO2, mmHg>
120

$$$$
>  <Compound>
FC(F)OC(F)(F)C(F)Cl (stereo not shown)

>  <PaO2, mmHg>
143

$$$$
>  <Compound>
FC(F)OC(F)C(F)(F)F (stereo not shown)

>  <PaO2, mmHg>
141

$$$$

Q: What value of PaO2 has been reported for the following compound? FC(F)OC(Cl)C(F)(F)F (stereo not shown)
Result: 167

###

Documented RPP across a set of molecules
Assay Remarks: Systemic hemodynamics during infarct experiment
Type: in vivo, rabbit
Condition: Memory
Field format: number, assumed bpm × mmHg × 10^3, no unit text.

Known results for molecules:
>  <Molecule>
FC(F)OC(F)C(F)(F)F (stereo not shown)

>  <Attribute Measured>
RPP

>  <Output Unit>
bpm × mmHg × 10^3

>  <Number>
16.3

$$$$
>  <Molecule>
FCOC(C(F)(F)F)C(F)(F)F

>  <Attribute Measured>
RPP

>  <Output Unit>
bpm × mmHg × 10^3

>  <Number>
22.1

$$$$
>  <Molecule>
FC(F)OC(F)(F)C(F)Cl (stereo not shown)

>  <Attribute Measured>
RPP

>  <Output Unit>
bpm × mmHg × 10^3

>  <Number>
18.9

$$$$

From here, focus on the item given below.
Q: Which RPP value is on record for FC(F)OC(Cl)C(F)(F)F (stereo not shown) ?
Result: 16.7

###

Assay Remarks: Arterial blood gas analysis
Format: in vivo, rabbit
Condition: Baseline
Attribute Measured: PaCO2

>  <Compound>
FC(F)OC(Cl)C(F)(F)F (stereo not shown) [ISO, isoflurane]

>  <PaCO2>
34 ± 2 mmHg

$$$$
>  <Compound>
FC(F)OC(F)C(F)(F)F (stereo not shown) [DES, desflurane]

>  <PaCO2>
29 ± 2 mmHg

$$$$

Q: What PaCO2 value was documented for this compound, FC(F)OC(F)(F)C(F)Cl (stereo not shown) [ENF, enflurane] ?
Result: 28 ± 2 mmHg

Q: Let us now turn to FCOC(C(F)(F)F)C(F)(F)F [SEVO, sevoflurane]
Result: 37 ± 1 mmHg
